Tested on: MAGI-CXCR4 cells
measurementDescription: MTS cytotoxicity on uninfected MAGI-CXCR4 plates
testContext: read-out: TC50; MTS staining, uninfected MAGI-CXCR4 cells

compound | CC50
Cc1ccc(-c2ccc3c(c2)C=C(C(=O)Nc2ccc(C[N+](C)(C)C4CCOCC4)cc2)CCC3)cc1 [TAK779, reference compound] | > 10 µM

----------
Test system: HIV-1 IIIB
measurementDescription: MAGI-CXCR4 HIV-1 IIIB antiviral assay (β-galactosidase reporter)
testContext: Human immunodeficiency virus 1, IIIB, read-out: HIV IC50, MAGI-CXCR4 cells, further testing
Method: Example 2: MAGI-CXCR4 HIV-1 IIIB Assay Procedure MAGI-CXC4 cells (obtained from the NIH AIDS Research and Reference Reagent Program) are passed into T-75 flasks prior to use in the antiviral assay. […] Total cell and viability quantification is performed using a hemacytometer and trypan blue exclusion. […] Compounds are evaluated at one or two concentrations (e.g., for initial screening) or in dose-response at six concentrations (triplicate wells/concentration). […]
pIC50: −log10 of the molar value.
recordedMetric: pIC50

compound | reportedValue
c1cc(CN2CCCNCCNCCCNCC2)ccc1CN1CCCNCCNCCCNCC1 [AMD3100, reference compound] | 8.70

----------
System: MAGI-CXCR4 cells
measurementDescription: in vitro
testContext: human

molecule | CC50
NCCCCN(CC1CN(Cc2ccccc2)CCN1)C1CCCc2cccnc21 (stereo not shown) [Compound 8] | > 10 µM

----------
Tested on: HIV IIIB virus
measurementDescription: Peripheral blood mononuclear cell HIV IIIB assay
testContext: read-out: PBMC-HIV IC50; PBMC infected 6 days with live HIV IIIB
recordedMetric: IC50 (nM)

smilesInput | recordedMetric | readoutUnits | reportedValue
Cc1cn([C@H]2C[C@H](N=[N+]=[N-])[C@@H](CO)O2)c(=O)[nH]c1=O | IC50 | nM | 4
